Molecular target: Neutrophil elastase (Homo sapiens, UniProt P08246)
Sequence (P08246 whole entry): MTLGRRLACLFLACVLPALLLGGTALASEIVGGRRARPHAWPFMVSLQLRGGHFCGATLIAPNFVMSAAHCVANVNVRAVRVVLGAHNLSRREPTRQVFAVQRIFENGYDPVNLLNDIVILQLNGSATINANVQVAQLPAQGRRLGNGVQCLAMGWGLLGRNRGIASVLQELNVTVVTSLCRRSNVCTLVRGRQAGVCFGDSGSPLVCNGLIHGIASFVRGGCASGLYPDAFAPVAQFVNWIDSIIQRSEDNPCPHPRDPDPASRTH
Test: Inhibition human neutrophil elastase
measurement-kind: pKi
Scale: negative log10 of molar concentration, which is what pKi denotes.

The value of pKi measured for the compound CCCC1C(=O)N(COC(=O)c2c(Cl)cccc2Cl)S(=O)(=O)N1C (stereo unspecified) turned out to be 8.26
